// reported log10(IC50) per item
Target: human IRAK4 FL (Full Length) (Homo sapiens (Human))
Sequence (Q9NWZ3 whole entry): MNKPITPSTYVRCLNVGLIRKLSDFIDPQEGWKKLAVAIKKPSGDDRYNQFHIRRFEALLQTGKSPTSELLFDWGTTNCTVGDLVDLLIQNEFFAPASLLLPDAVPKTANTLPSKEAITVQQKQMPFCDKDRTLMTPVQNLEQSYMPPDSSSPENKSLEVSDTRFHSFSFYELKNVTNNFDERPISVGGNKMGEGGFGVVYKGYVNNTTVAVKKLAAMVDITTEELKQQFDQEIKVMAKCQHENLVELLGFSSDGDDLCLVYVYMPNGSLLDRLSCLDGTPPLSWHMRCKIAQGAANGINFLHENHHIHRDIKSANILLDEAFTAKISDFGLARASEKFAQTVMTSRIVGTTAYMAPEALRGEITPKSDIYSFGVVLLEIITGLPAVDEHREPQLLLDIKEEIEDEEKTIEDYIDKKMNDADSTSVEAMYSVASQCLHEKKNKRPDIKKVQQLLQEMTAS
Test: IRAK4 Enzymatic DELFIA Assay, Protocol A
Format: biochemical
Settings: human IRAK4 FL, 0.6 mM ATP (KM); read-out: IRAK4 DELFIA Protocol A IC50
Kindly note that the scale is log10 and the underlying IC50 is in nM.

The examples below pair each entry with its known result.
Molecule: COc1cc2c(OC[C@H]3NC(=O)O[C@H]3C)cccc2cc1C(N)=O
System: human IRAK4 FL (Full Length) (Homo sapiens (Human))
Result value: 0.28

Molecule: COc1cc2c(OC[C@H]3NC(=O)[C@@H]4C[C@H]34)ccnc2cc1C(N)=O
System: human IRAK4 FL (Full Length) (Homo sapiens (Human))
Result value: 0.08

Molecule: CC(C)Oc1cc2c(OC[C@@H]3C[C@H](C4(O)COC4)C(=O)N3)nccc2cc1C(N)=O
System: human IRAK4 FL (Full Length) (Homo sapiens (Human))
Result value: 2.45

Molecule: CC(C)Oc1cc2c(OC[C@@H]3C[C@](F)(CO)C(=O)N3)nccc2cc1C(N)=O
System: human IRAK4 FL (Full Length) (Homo sapiens (Human))
Result value: 3.15

Molecule: COc1cc2c(OC[C@H]3NC(=O)[C@](F)(CO)[C@H]3C)nccc2cc1C(N)=O
System: human IRAK4 FL (Full Length) (Homo sapiens (Human))
Result value: 0.04

Molecule: CC(C)Oc1cc2c(OC[C@@H]3C[C@@](F)(CO)C(=O)N3)nccc2cc1C(N)=O
System: human IRAK4 FL (Full Length) (Homo sapiens (Human))
Result value: 0.23

// field: log10(IC50); key: `COc1cc2c(OC[C@H]3NC(=O)[C@@H]4[C@@H](C)[C@@H]43)c(Cl)cnc2cc1C(N)=O` ; value = 3.62

`C=C[C@H]1CC(=O)N[C@@H]1COc1nccc2cc(C(N)=O)c(OC)cc12` has a reported log10(IC50) of 1.11
